// values below are cell viability (ATP level) in non-infected and infected cells; system is HEK293T-ACE2-TMPRSS2 cells

Here are 8 compounds together with their reported answers.
INSERT INTO results (compound, tested_system, recorded_value) VALUES
  ('CNCCCN1c2ccccc2CCc2ccccc21 [Desipramine]', 'HEK293T-ACE2-TMPRSS2 cells', 'Reduction'),
  ('CNCCC(Oc1ccc(C(F)(F)F)cc1)c1ccccc1 (stereo not shown) [Fluoxetine]', 'HEK293T-ACE2-TMPRSS2 cells', 'Reduction'),
  ('CN(C)CCCN1c2ccccc2CCc2ccccc21 [Imipramine]', 'HEK293T-ACE2-TMPRSS2 cells', 'Reduction'),
  ('O=c1[nH]c2ccccc2n1C1CCN(CCCC(c2ccc(F)cc2)c2ccc(F)cc2)CC1 [Pimozide]', 'HEK293T-ACE2-TMPRSS2 cells', 'Reduction'),
  ('CN(C)CCCN1c2ccccc2CCc2ccc(Cl)cc21 [Clomipramine]', 'HEK293T-ACE2-TMPRSS2 cells', 'Reduction'),
  ('OCCN1CCN(CCC=C2c3ccccc3Sc3ccc(C(F)(F)F)cc32)CC1 [Flupenthixol]', 'HEK293T-ACE2-TMPRSS2 cells', 'Reduction'),
  ('CN(C)CCCN1c2ccccc2Sc2ccc(Cl)cc21 [Chlorpromazine]', 'HEK293T-ACE2-TMPRSS2 cells', 'Reduction'),
  ('COCCCC/C(=N\OCCN)c1ccc(C(F)(F)F)cc1 [Fluvoxamine]', 'HEK293T-ACE2-TMPRSS2 cells', 'Reduction');

*Q* Enter reported cell viability (ATP level) in non-infected and infected cells observed with HEK293T-ACE2-TMPRSS2 cells for Fc1ccc([C@@H]2CCNC[C@H]2COc2ccc3c(c2)OCO3)cc1 [Paroxetine]
*A* Reduction

*Q* Lookup CN(C)CCCC1(c2ccc(F)cc2)OCc2cc(C#N)ccc21 (stereo not shown) [Citalopram]
*A* Reduction

* * *

Reported CC50 values follow for various molecules
Experiment: in vitro
Conditions: human
Numeric answer only, unit µM assumed.

INSERT INTO assay_data (molecule, recorded_value) VALUES
  ('CN(C)CCCC1(c2ccc(F)cc2)OCc2cc(C#N)ccc21 (stereo not shown) [Citalopram]', 274);

*Q* Entry OCCN1CCN(CCC=C2c3ccccc3Sc3ccc(C(F)(F)F)cc32)CC1 [Flupenthixol] : reported CC50 = ?
*A* 19.4

*Q* Lookup CNCCCN1c2ccccc2CCc2ccccc21 [Desipramine]
*A* 68.9

*Q* Lookup Fc1ccc([C@@H]2CCNC[C@H]2COc2ccc3c(c2)OCO3)cc1 [Paroxetine]
*A* 22.1

*Q* Lookup CNCCC(Oc1ccc(C(F)(F)F)cc1)c1ccccc1 (stereo not shown) [Fluoxetine]
*A* 41.5

*Q* Lookup CN(C)CCCN1c2ccccc2Sc2ccc(Cl)cc21 [Chlorpromazine]
*A* 15.9

*Q* Lookup O=c1[nH]c2ccccc2n1C1CCN(CCCC(c2ccc(F)cc2)c2ccc(F)cc2)CC1 [Pimozide]
*A* 15

*Q* Lookup CN(C)CCCN1c2ccccc2CCc2ccccc21 [Imipramine]
*A* 68.6

*Q* Lookup CN(C)CCCN1c2ccccc2CCc2ccc(Cl)cc21 [Clomipramine]
*A* 65.7

*Q* Lookup COCCCC/C(=N\OCCN)c1ccc(C(F)(F)F)cc1 [Fluvoxamine]
*A* 75.3
